meta.source: PubChem BioAssay (Tox21)

Assay: qHTS assay to identify aromatase inhibitors - cell viability counter screen (AID 743084);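 note: cells stimulated with testosterone during compound exposure; nearly all actives have a fitted effect of over 55% in size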
Details: MCF-7 aro ERE viability, CellTiter-Fluor, 24 h; series mostly up to 70.3 µM
Results filed as inconclusive are left out. Active and inactive are the calls of the source. Calls come from the whole dose curve; as a rule, active = well fitted cell-killing curve with a large enough effect in the repeat runs; inconclusive = weak or mixed curves, or effect the other way; inactive = no such curve, though single readings can be large or run the other way.
Parameter call: string, one of active, inactive

• O=[N+]([O-])c1ccc(O)c([N+](=O)[O-])c1 = active
• COP(=O)(OC)OC = inactive
• O=[N+]([O-])c1c(Cl)c(Cl)c(Cl)c(Cl)c1Cl = inactive

Request: Look up the recorded call for `Nc1cccnc1` in this test.
Result: inactive

Request: Try this compound too: `CC(C)c1ccc(CO)cc1`
Result: inactive

Request: Would you kindly repeat that for `CN(C)C(=O)Nc1ccc(Cl)cc1` ?
Result: inactive

Request: Entry to check: `O=C(NC(=O)c1c(F)cccc1F)Nc1ccc(Cl)cc1`
Result: inactive

---

Test: qHTS assay to identify small molecule antagonists of the sonic hedgehog signaling (Shh) pathway - cell viability counter screen (AID 1259367); note: % is set by controls: 0 for no effect and ±100 for the full control effect; nearly all actives have a fitted effect of over 55% in size
Conditions: NIH/3T3 Gli1-Luc viability, CellTiter-Fluor, 24 h; series mostly up to 92.4 µM
Results filed as inconclusive are left out. Calls of active or inactive are those of the source. The call rests on the fitted dose curve; in most records, active means well fitted cell-killing curve with a large enough effect in the repeat runs; inconclusive means weak or mixed curves, or effect the other way; inactive means no such curve, though single readings can be large or run the other way.
Parameter call: string, one of 1 (active), 0 (inactive)

Some solved cases for reference:
• ClC1C(Cl)C(Cl)C(Cl)C(Cl)C1Cl (centres undefined) = 0
• C#C[C@]1(O)CC[C@H]2[C@@H]3CCC4=CC(=O)CC[C@]4(C)[C@H]3CC[C@@]21C = 0
• Clc1nc(Cl)nc(Cl)n1 = 0
• C[C@]12CCC(=O)C[C@@H]1CC[C@@H]1[C@@H]2CC[C@]2(C)[C@@H](O)CC[C@@H]12 = 0
• CCC(C)(c1ccc(O)cc1)c1ccc(O)cc1 = 0

# next compound below
Request: // param item: `CCOP(=S)(OCC)O/N=C(\C#N)c1ccccc1` ; yields the recorded call
Result: 0

---

Target: Nuclear receptor subfamily 1 group I member 3 (Homo sapiens)
Assay: qHTS assay to identify small molecule agonists of the constitutive androstane receptor (CAR) signaling pathway (AID 1224839); note: nearly all actives have a fitted effect of over 15% in size;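 for activation: HepG2 cells stably carrying human CAR and a CYP2B6 luciferase reporter; % is set by controls: 0 for no effect and ±100 for the full control effect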
Conditions: HepG2 hCAR CYP2B6-luciferase, agonist mode, 24 h; series mostly up to 92.4 µM
Text: National Center for Advancing Translational Sciences [NCATS] NIH Chemical Genomics Center [NCGC] U.S. Environmental Protection Agency [EPA] National Institutes of Environmental Health Sciences [NIEHS] National Toxicology Program [NTP] […] Assay Protocol Summary: A double-stable (hCAR and CYP2B6-2.2kb) transfected cell line, derived from human hepatoma (HepG2) cells, was utilized for the duration of the quantitative high-throughput screens. […]
Records with an inconclusive call do not appear. Calls of active or inactive are those of the source. The call rests on the fitted dose curve; in most records, active means well fitted activation curve with a large enough effect in the repeat runs; inconclusive means weak or mixed curves; inactive means no such curve, though single readings can be large or run the other way.
Result category, one only: yes (1) (active), no (0) (inactive)

Field: example entries. Status: answers known.
* CCOc1cc(C=O)ccc1O | no (0)
* Oc1cc(Cl)ccc1Oc1ccc(Cl)cc1Cl | no (0)
* CNC(=O)N(C)c1nnc(C(C)(C)C)s1 | no (0)

Request: For this compound, state the assay outcome: `CC(C)N(C(=O)SCC(Cl)=C(Cl)Cl)C(C)C`
Result: no (0)

Request: Also, `Nn1cnnc1` please.
Result: no (0)

Request: Another: `COP(=S)(OC)Oc1cc(Cl)c(Cl)cc1Cl`
Result: yes (1)

Request: How about `Cc1cc(Cl)ccc1OCCCC(=O)O` ?
Result: no (0)

---

Molecular target: Cytochrome P450 2C19 (Homo sapiens) (UniProt P33261)
Sequence (P33261 whole entry, looked up): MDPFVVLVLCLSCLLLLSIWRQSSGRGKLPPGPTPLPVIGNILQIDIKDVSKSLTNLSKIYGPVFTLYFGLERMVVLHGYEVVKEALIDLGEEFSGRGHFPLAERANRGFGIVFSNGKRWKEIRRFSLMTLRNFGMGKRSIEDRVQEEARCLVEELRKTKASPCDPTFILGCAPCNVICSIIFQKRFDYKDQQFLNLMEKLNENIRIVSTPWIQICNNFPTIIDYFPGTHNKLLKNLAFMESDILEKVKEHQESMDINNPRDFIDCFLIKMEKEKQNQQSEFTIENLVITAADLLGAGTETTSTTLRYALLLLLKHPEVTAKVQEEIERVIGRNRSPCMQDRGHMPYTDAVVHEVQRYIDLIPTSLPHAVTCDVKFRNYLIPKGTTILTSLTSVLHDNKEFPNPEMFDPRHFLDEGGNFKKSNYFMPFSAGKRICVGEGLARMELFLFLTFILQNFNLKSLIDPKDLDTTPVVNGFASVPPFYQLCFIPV
Experiment: Cytochrome P450 Family 2 Subfamily C Member 19 (CYP2C19) small molecule antagonists: luciferase reporter qHTS assay (AID 1671197); note: nearly all actives have a fitted effect of over 65% in size; note: potency is the fitted concentration of half-maximal effect
Details: P450-Glo CYP2C19 enzyme, luciferin luminescence, 1 h; series mostly up to 115 µM
Records with an inconclusive call do not appear. Calls of active or inactive are those of the source. Calls follow the shape of the dose curve; as a rule, active = well fitted inhibition curve with a large enough effect in the repeat runs; inconclusive = weak or mixed curves; inactive = no such curve, though single readings can be large or run the other way.
READOUT NAME: Potency

• CC(C)NC(C)C = inactive
• c1nc[nH]n1 = inactive
• COC(=O)c1sccc1S(=O)(=O)NC(=O)Nc1nc(C)nc(OC)n1 = 81.3 µM (active)
• CCCCNC(=O)n1c(NC(=O)OC)nc2ccccc21 = 79.3 µM (active)

---

Test: qHTS assay to identify small molecule antagonists of the estrogen receptor beta (ER-beta) signaling pathway - cell viability counter screen (AID 1259382); note: nearly all actives have a fitted effect of over 55% in size
Conditions: ER-beta-UAS-bla HEK293T viability, CellTiter-Glo luminescence, 16 h; series mostly up to 92.4 µM
Records with an inconclusive call do not appear. Active and inactive are the calls of the source. Calls come from the whole dose curve; as a rule, active = well fitted cell-killing curve with a large enough effect in the repeat runs; inconclusive = weak or mixed curves; inactive = flat fitted curve, though single readings scatter.
Use one of these outcomes when replying: yes (1) (active), no (0) (inactive)

* Oc1cc(Cl)c(Cl)cc1Cl | no (0)

Request: Which outcome was assigned to `N[C@@H](Cc1ccc(N(CCCl)CCCl)cc1)C(=O)O` in this test?
Result: no (0)

Request: Now consider `c1ccc(P(c2ccccc2)c2ccccc2)cc1` and answer again.
Result: no (0)

Request: Please answer likewise for `NNC(N)=S`
Result: yes (1)

Request: Next entry: CCCCC(CC)COC(=O)c1ccc(C(=O)OCC(CC)CCCC)c(C(=O)OCC(CC)CCCC)c1 (stereo not given)
Result: no (0)

---

Test: qHTS assay to identify small molecule agonists of the farnesoid-X-receptor (FXR) signaling pathway - cell viability counter screen (AID 743218); note: % is set by controls: 0 for no effect and ±100 for the full control effect; nearly all actives have a fitted effect of over 45% in size
Conditions: FXR-bla HEK293T viability, CellTiter-Glo luminescence, 16 h; series mostly up to 62.6 µM
Inconclusive results are not listed. The source made the active and inactive calls. Calls follow the shape of the dose curve; as a rule, active = well fitted cell-killing curve with a large enough effect in the repeat runs; inconclusive = weak or mixed curves, or effect the other way; inactive = no such curve, though single readings can be large or run the other way.
READOUT NAME: Potency

* CCCCC(CC)COC(=O)Cl (stereo unspecified) | inactive
* CCC(CC)Nc1c([N+](=O)[O-])cc(C)c(C)c1[N+](=O)[O-] | inactive
* CC(C)N(C(=O)SCC(Cl)=C(Cl)Cl)C(C)C | inactive
* CC(O)CCO (stereo unspecified) | inactive

Alright, here's another molecule for you.
Request: Could you tell me which Potency is on file for `CCOc1cc(C=O)ccc1O` ?
Result: inactive

---

Test: qHTS assay to test for compound auto fluorescence at 460 nm (blue) in HepG2 cells (AID 720687); note: % is set by controls: 0 for no effect and ±100 for the full control effect
Details: autofluorescence 405/460 nm, 1 h; series mostly up to 91.3 µM
Calls of active or inactive are those of the source. The call rests on the fitted dose curve; in most records, active means well fitted curve in the direction sought with a large enough effect in the repeat runs; inconclusive means weak or mixed curves; inactive means flat fitted curve, though single readings scatter.
READOUT NAME: outcome

- O=C(CCl)c1ccccc1: inactive
- O=[N+]([O-])c1cccc2ccccc12: inactive
- COP(=S)(OC)Oc1ccc([N+](=O)[O-])cc1: inactive
- Cc1ccc2c(c1N)C(=O)c1ccccc1C2=O: inactive

---

Target: Progesterone receptor (Homo sapiens)
Experiment: qHTS assay to identify small molecule antagonists of the progesterone receptor (PR) signaling pathway (AID 1346795)
Details: PR-UAS-bla HEK293T, beta-lactamase FRET ratio, 16 h; series mostly up to 92.4 µM
Records with an inconclusive call do not appear. Activity calls are given as the source filed them. Calls follow the shape of the dose curve; as a rule, active = well fitted inhibition curve with a large enough effect in the signal ratio in the repeat runs (not every such curve was filed as active); inconclusive = weak or mixed curves; inactive = flat fitted curve, though single readings scatter; the % refers to the signal ratio.
Output constraint: value belongs to TRUE for active, FALSE for inactive

* Nc1cccnc1 | FALSE

Request: Lab log entry: `COP(=S)(OC)Oc1cc(Cl)c(Cl)cc1Cl` — outcome as called in the assay?
Result: FALSE

Request: Likewise for `O=C(CCl)c1ccccc1` ?
Result: FALSE

Request: Now this one: `Nc1ccc(-c2ccccc2)cc1`
Result: TRUE

Request: Let us now turn to `c1ccc(N=Nc2ccccc2)cc1`
Result: FALSE

---

Assay: qHTS assay to identify small molecule agonists of the estrogen receptor beta (ER-beta) signaling pathway - cell viability counter screen (AID 1259380); note: nearly all actives have a fitted effect of over 30% in size; note: potency is the fitted concentration of half-maximal effect
Details: ER-beta-bla HEK293T viability, CellTiter-Glo luminescence, 16 h; series mostly up to 92.4 µM
Inconclusive results are not listed. Activity calls are given as the source filed them. The call rests on the fitted dose curve; in most records, active means well fitted cell-killing curve with a large enough effect in the repeat runs; inconclusive means weak or mixed curves, or effect the other way; inactive means flat fitted curve, though single readings scatter.
READOUT NAME: Potency

Some solved cases for reference:
* CCC(CC)Nc1c([N+](=O)[O-])cc(C)c(C)c1[N+](=O)[O-] | 61.1 µM (active)
* CCCCCCCCOC(=O)c1ccccc1C(=O)OCCCCCCCC | inactive
* Cc1ccc2c(c1N)C(=O)c1ccccc1C2=O | 30.3 µM (active)
* Cc1c(COC(=O)[C@@H]2[C@H](/C=C(\Cl)C(F)(F)F)C2(C)C)cccc1-c1ccccc1 | inactive
* CCC(C)(c1ccc(O)cc1)c1ccc(O)cc1 | inactive

Request: Entry CCC(C)c1ccc(O)cc1 (centres undefined) : reported Potency = ?
Result: inactive

Request: How about this compound: `CCCCCCCCCCCOC(=O)c1ccccc1C(=O)OCCCCCCCCCCC`
Result: inactive

Request: Query `O=S(=O)(Oc1ccc(Cl)cc1)c1ccc(Cl)cc1` next
Result: inactive

Request: Check `CCCCCCCCC(=O)NCc1ccc(O)c(OC)c1` too.
Result: inactive

Request: Record: `CN(C)c1ccc(C(=O)c2ccc(N(C)C)cc2)cc1`
Result: inactive

Request: What do you get for `CNC(=O)N(C)c1nnc(C(C)(C)C)s1` ?
Result: inactive

Request: Try this compound next: `CC(C)(OOC(C)(C)c1ccccc1)c1ccccc1`
Result: inactive

Request: Follow-up entry: `NNC(=S)NN`
Result: 30.6 µM (active)

Request: Similarly, `CC(C)Oc1cc(-n2nc(C(C)(C)C)oc2=O)c(Cl)cc1Cl` ?
Result: inactive

Request: Another compound: `O=C(CCl)c1ccccc1`
Result: inactive

Request: Continue with `CCOP(=S)(OCC)O/N=C(\C#N)c1ccccc1`
Result: inactive

Request: Check CCC(C)c1cc([N+](=O)[O-])cc([N+](=O)[O-])c1O (centres undefined) too.
Result: inactive

Request: # iterate: `CNC(=O)Oc1cccc2c1OC(C)(C)O2`
Result: inactive

Request: Please do the same for `CCN(CC)C(=O)SCc1ccc(Cl)cc1` as well.
Result: inactive

Request: Now the same for `c1nc[nH]n1`
Result: inactive

Request: Then `CC(C)NC(C)C` ?
Result: inactive

Request: Likewise for `Cc1ccc(OP(=O)(Oc2ccc(C)cc2)Oc2ccc(C)cc2)cc1` ?
Result: 68.5 µM (active)

Request: `COP(=O)(OC)OC` ?
Result: inactive
